TARGET_OF_ASSAY: Prothrombin (Homo sapiens, UniProt P00734)
OBSERVATION_TYPE: Ki

For the compound Nc1nc2cc(NC(=O)c3cc4ccccc4cc3O)ccc2[nH]1 , report Ki.
> 450 µM
